# credit: a melting point compilation (Tetko et al.; mined from patent text by program, amines drawn as free bases though some values may be those of a salt)

Provide the reported melting point of each item.

Problem: melting point for COc1cccc2c1C1=C(CC2)NC(=O)CC1 ?
Result: 190 °C

Problem: Please give the measured melting point for this compound: COc1c(N2CCC(CN)C2)c(F)cc2c(=O)c(C(=O)O)cn(C3CC3)c12 (stereo not given)
Result: 198 to 200 °C

Problem: So what does the record say about melting point for O=c1c(Cn2cncn2)cc2cc(Br)ccc2n1-c1ccccc1 ?
Result: 237 to 240 °C

Problem: Quick check: melting point of COC(=O)C1=C(COCCn2c(C)nc(C)c2C)Nc2c(c(=O)n(C)c(=O)n2C)C1c1ccccc1Cl (stereo not given) ?
Result: 226 to 228 °C

Problem: State the recorded melting point for this entry: COc1cccc(NC(=O)CN2C(=O)c3ccccc3C2=O)c1
Result: 171 °C

Problem: Need melting point, item N#Cc1ccc(NC(=O)NCCCCl)cc1
Result: 95 to 97 °C

Problem: Name the recorded melting point for COc1ccc(C(=O)Nc2cnccc2Cl)cc1OC1CCCC1 .
Result: 130 to 132 °C

Problem: What does the data say about its melting point? Entry: COC(=O)C1=C(Cc2ccccc2)C(=O)NCC1
Result: 104 to 108 °C

Problem: Recorded melting point for CN1CCN(c2ccc(Nc3ncc4ccc(-c5cccc(CN(C)S(C)(=O)=O)c5)n4n3)cc2)CC1 , please?
Result: 229 to 230 °C

Problem: Given the compound CC(O)C1C(=O)N2C(C(=O)OCc3ccccc3)=C(S(=O)c3ccccc3)CC12 (stereo not given) , what is its reported melting point?
Result: 104 to 109 °C
